Tested on: mRNA expressed from the genes (A) to (D) in rat liver
protocol notes: Behavior of genes (mRNA expression level, oligo-DNA microarray) in rat liver after 28-day oral administration
Assay type: in vivo
setup conditions: (C), Unigene Rn.4620, defined direction +; rat liver, oral once daily 28 days
assay endpoint: Behavior of gene caused by administration of chemical substance, Gene No. 3929

- compound: "c1ccc2ncccc2c1 [TS006, Quinoline]"
  result: "−"
- compound: "CC(=O)Nc1ccc2c(c1)Cc1ccccc1-2 [TS043, 2-Acetylaminofluorene]"
  result: "−"
- compound: "CCN(CC)N=O [TS011, Diethylnitrosamine]"
  result: "−"
- compound: "O=NN1CCCCC1 [TS042, N-Nitrosopiperidine]"
  result: "−"
- compound: "COC(N)=O [TS029, Methyl carbamate]"
  result: "−"
- compound: "CC(C)[N+](=O)[O-] [TS013, 2-Nitropropane]"
  result: "−"
- compound: "Cc1ccc(N)cc1N [TS004, 2,4-Diaminotoluene]"
  result: "−"
- compound: "CC(N)=O [TS067, Acetamide]"
  result: "−"
- compound: "CCOC(N)=O [TS054, Urethane]"
  result: "−"
- compound: "C1COCCO1 [TS027, 1,4-Dioxane]"
  result: "−"
- compound: "CN(C)N=O [TS041, N-Nitrosodimethylamine]"
  result: "−"
- compound: "O=NN1CCOCC1 [TS014, N-Nitrosomorpholine]"
  result: "−"
- compound: "CC(=N)S [TS030, Thioacetoamide]"
  result: "−"
- compound: "c1ccoc1 [TS028, Furan]"
  result: "+"
